These data points were gathered from the nanobody polyreactivity screen of Harvey et al. (2022).

# MEASUREMENT_NOTES: yeast display, Sf9 membrane polyspecificity reagent, FACS + sequencing; frameworks hold sequencing errors
ENDPOINT_NAME: polyreactivity (PSR sort gate)

Example entries begin here.
- QVQLVESGGGLVQAGGSLRLSCAASGRIFLYNVMGWYRQAPGKERELVAAISWSGTRTYYADSVKGRFTISRDNAKNTVYLQMNSLKPEDTAVYYCNACRYYRHDYWGQGTQVTVSS: low polyreactivity
- QVQLVESGGGLVQAGGSLRLSCAASGFIFTYYAMGWYRQAPGKERELVAAISWDGGSTYYADSVKGRFTISRDNAKNTVYLQMNSLKPEDTAVYYCNRDLYGYVRYDYWGQGTQVTVSS: low polyreactivity
- QVQLVESGGGLVQAGGSLRLSCAASGRIFKKNAMGWYRQAPGKERELVASITRGASTNYADSVKGRFTISRDNAKNTVYLQMNSLKPEDTAVYYCAAVITLNGDGPPSDYWGQGTQVTVSS: low polyreactivity
- QVQLVESGGGLVQAGGSLRLSCAASGSIFGYYAMGWYRQAPGKERELVAAITRSGGRTYYADSVKGRFTISRDNAKNTVYLQMNSQKPEDTAVYYCATEWLKDRYPYGYWGQGTQVTVSS: high polyreactivity
- QVQLVESGGGLVQAGGSLRLSCAASGIIFWRYAMGWYRQAPGKERELVASISSSGGRTYYADSVKGRFTISRDNAKNTVYLQMNSLKPEDTAVYYCAARGPYGYDLLYYWGQGTQVTVSS: high polyreactivity

Give me polyreactivity (PSR sort gate) for each of these sequences, listed below.
1. QVQLVESGGGLVQAGGSLRLSCAASGRTFDGYVMGWYRQAPGKERELVAAISWGGSSTYYADSVKGRFTISRDNAKNTVYLQMNSLKPEDTAVYYCAKDTVPYERDYWGQGTQVTVSS
2. QVQLVESGGGLVQAGGSIRLSCAASGRIFARYAMGWYRQAPGTERELVASITVSGDNTYYADSVKGRFTISRDNAKKTVYLQMNSLKPEDTAVYYCAVRAVVLFGFFEYDYWGQGTQVTVSS
3. QVQLVESGGGLVQAGGSLRLSCAASGRIFPPNAMGWYRQAPGKERELVAGITSSGDTTYYADSVKGRFTISRDNAKNTVYLQMNSLKPEDTAVYYCAKDEVYADDRSALFDYWGQGTQVTVSS
4. QVQLVESGGGLVQAGGSLRLSCAASGRIFYAYAMGWYRPAPGNERELVAAITISASSTYYADSVKGRFTISRDNAKNTVYLQMNSLKPEDTAVSYCAAAYRRPWWYSYRYGYWGQGTQVTVSS
5. QVQLVESGGGLVQAGGSLRLSCAASGSIVGIYVMGWYRQAPGKERELVAGISPRGGSTYYADSVKGRFTISRDYAKNTVYLQMNSLKPEDTAVYYCAAVPASFRYPMYYLGQGTQVTVSS
6. QVQLVESGGGLVQAGGSLRLSCAASGGTCWWYAMGWYRQAPGKEREFVAAISQRGTSTYYADSVKGRFTISRDNAKNTVYLQMNSLKPEDTAVYYCAVRAYRWRSTLGLYYWGQGTQVTVSS

["low polyreactivity", "low polyreactivity", "low polyreactivity", "high polyreactivity", "low polyreactivity", "high polyreactivity"]

###

# MEASUREMENT_NOTES: yeast display, Sf9 membrane polyspecificity reagent, FACS + sequencing; frameworks hold sequencing errors
ENDPOINT_NAME: polyreactivity (PSR sort gate)

* QVQLVESGGGLVQAGGSLRLSCAASGNIFDRYVMGWYRQAPGKERELVAAISVSGGSTYYADSVKGRFTISRDNAKNTVYLQMNSLKPEDTAVYYCAAHSRLINWYDYWGQGTQVTVSS | high polyreactivity
* QVQLVESGGGLVQAGGSLSLSCAASGYTFYKYAMGSYIQAPGKERELVAAISSSGGSTYYADSVKGRFTISRDNAKNTVYLQMNSLKPEDTAVNYCAAYVYSNDYDYWGQGTQVTVSS | high polyreactivity
